activity change, negative = cytotoxicity values, listed per item
assay: qHTS RealTime-Glo MT Cell Viability Assay in HepG2 cells - 24 hour (AID 1224867); settings: RealTime-Glo luminescence; series mostly up to 76.8 µM; note: % is set by controls: 0 for no effect and ±100 for the full control effect; nearly all actives have a fitted effect of over 50% in size
Records with an inconclusive call do not appear. The source made the active and inactive calls. Calls come from the whole dose curve; as a rule, active = well fitted cell-killing curve with a large enough effect in the repeat runs; inconclusive = weak or mixed curves; inactive = flat fitted curve, though single readings scatter.
outcomeMeasure: activity change, negative = cytotoxicity

COc1cc(C(C)C)c2c(c1)S(=O)(=O)N(COc1cc(=O)n3cccc(OCCN4CCCCC4)c3n1)C2=O :: -8.66% [at 15.8 µM] (inactive)
C=C/C=C/C=C/CCCCC :: -0.964% [at 15.8 µM] (inactive)
CCN1CCN(c2cc(-c3ccc(F)cc3)c3c(n2)CCCCCC3)CC1 :: -8.27% [at 15.8 µM] (inactive)
CCC(=O)CC(C)CC (stereo not drawn) :: -0.146% [at 0.29 µM] (inactive)
C=CC(=C)CC/C=C(\C)CCC=C(C)C :: 0.599% [at 15.8 µM] (inactive)
CCCCCCCCCCCCCCCCCO :: 0.355% [at 15.8 µM] (inactive)
O=C=NCc1cccc(CN=C=O)c1 :: 1.03% [at 15.8 µM] (inactive)
O=S(O)O :: 3.99% [at 15.8 µM] (inactive)

====

experiment: qHTS assay to identify small molecule antagonists of the peroxisome proliferator-activated receptor gamma (PPARg) signaling pathway - cell viability counter screen (AID 743194); conditions: PPARg-bla HEK293H viability, CellTiter-Glo luminescence, 17 h, co-treated with 50 nM rosiglitazone; series mostly up to 62.6 µM; note: nearly all actives have a fitted effect of over 55% in size
Records with an inconclusive call do not appear. Calls of active or inactive are those of the source. Calls follow the shape of the dose curve; as a rule, active = well fitted cell-killing curve with a large enough effect in the repeat runs; inconclusive = weak or mixed curves, or effect the other way; inactive = no such curve, though single readings can be large or run the other way.
Labels: y = active, n = inactive

CCNc1nc(NC(C)CC)nc(OC)n1 (stereo unspecified) :: n
CCCCCCCCCCCCOC(=O)c1cc(O)c(O)c(O)c1 :: y
COC(=O)C1=C(C)NC(C)=C(C(=O)OCCCN2CCC(c3ccccc3)(c3ccccc3)CC2)C1c1cccc([N+](=O)[O-])c1 (stereo unspecified) :: y
CNC(=O)c1cc(Oc2ccc(NC(=O)Nc3ccc(Cl)c(C(F)(F)F)c3)cc2)ccn1 :: y
CC1CCCNC1 (stereo unspecified) :: n
COCC(=O)O[C@]1(CCN(C)CCCc2nc3ccccc3[nH]2)CCc2cc(F)ccc2[C@@H]1C(C)C :: y
O[C@@H](c1cc(C(F)(F)F)nc2c(C(F)(F)F)cccc12)[C@H]1CCCCN1 :: y
Cc1cc2c(C(C)C)c(O)c(O)c(C=O)c2c(O)c1-c1c(C)cc2c(C(C)C)c(O)c(O)c(C=O)c2c1O :: y
O=C(Nc1ccc(Cl)cc1)Nc1ccc(Cl)c(C(F)(F)F)c1 :: y
CCCCCCCCCCCCCCCC :: n
CCN(CC)CCOC(=O)C1(C2CCCCC2)CCCCC1 :: n
CN(C)CCCN1c2ccccc2CCc2ccccc21 :: n
NC(=O)c1ccccc1N :: n
CC(=O)Oc1ccc(C2(c3ccc(OC(C)=O)cc3)C(=O)Nc3ccccc32)cc1 :: n
Cc1cn[nH]c1 :: n
Cc1oc(-c2ccccc2)nc1CCOc1ccc(C[C@H](Nc2ccccc2C(=O)c2ccccc2)C(=O)O)cc1 :: y
c1ccc(Nc2cccc3ccccc23)cc1 :: n
CN1CCN(C2Cc3ccccc3Sc3ccc(Cl)cc32)CC1 (stereo unspecified) :: y
C=CCCCCCCC=C :: n
CCCCCCCCCCCC(=O)N(CC)CC :: n
CC(NCCC(c1ccccc1)c1ccccc1)c1ccccc1 (stereo unspecified) :: y
CCCCCCCC/C=C\CCCCCCCC(=O)NCc1ccc(O)c(OC)c1 :: n
NCCCCCCNCCCCCCN :: n
Cc1ccc(-n2[nH]c(C)c(N=Nc3cccc(-c4cccc(C(=O)O)c4)c3O)c2=O)cc1C :: y
COC(=O)[C@]1(C)CCC[C@@]2(C)[C@H]1CC=C1C=C(C(C)C)CC[C@@H]12 :: y
CC(C)c1ccc(O)c(C(C)C)c1 :: n
CC1(C)C(=O)N(Br)C(=O)N1Br :: n
O=C(c1ccccc1)c1cc(Cl)ccc1O :: n
CNCC[C@H](Oc1cccc2ccccc12)c1cccs1 :: y
CC(=O)Oc1ccc(C2(c3ccc(OC(C)=O)cc3)Oc3ccccc3NC2=O)cc1 :: n
Cc1nc(Nc2ncc(C(=O)Nc3c(C)cccc3Cl)s2)cc(N2CCN(CCO)CC2)n1 :: n
Cc1ccc2ccc3cccc4ccc1c2c34 :: n
CCC(C)(C)c1cc(O)c(C(C)(C)CC)cc1O :: y
O=C1NCN(c2ccccc2)C12CCN(CCCC(c1ccc(F)cc1)c1ccc(F)cc1)CC2 :: y
CCCCCCCCCCCCCOP(=O)(O)O :: y
Cc1cccc(C)c1NC(=O)CN1CCN(CCCC(c2ccc(F)cc2)c2ccc(F)cc2)CC1 :: y
CC(C)(C)C1=CC(=O)C=C(C(C)(C)C)C1=O :: y
N#CSCSc1nc2ccccc2s1 :: y
CCCCCCCOC(=O)c1ccc(O)cc1 :: n
c1cc(OCC2CO2)cc(OCC2CO2)c1 (stereo unspecified) :: n
Cc1ccc(N)cc1O :: n
CCc1cccc(C)c1 :: n
O=C1OC(=O)c2cccc3cccc1c23 :: n
CN1[C@@H]2CC[C@@H]1CC(OC(=O)C(CO)c1ccccc1)C2 (stereo partly specified) :: n
C[C@]12CC[C@H]3C(=CCc4cc(O)ccc43)[C@@H]1CCC2=O :: n
C[C@@H]1CC[C@H]2C(C)(C)[C@H]3C[C@@]12CC[C@@]3(C)O :: n
C=CC(C)(CCC=C(C)C)OC(=O)/C=C/c1ccccc1 (stereo unspecified) :: n
CC=O :: y
C=C[C@](C)(O)CC[C@@H]1[C@@]2(C)CCCC(C)(C)[C@@H]2CC[C@@]1(C)O :: y
Clc1ccc(C(c2ccccc2Cl)C(Cl)Cl)cc1 (stereo unspecified) :: y
CCCCOc1ccc(C(=O)CCN2CCCCC2)cc1 :: n
